Target: Cytochrome P450 2C9 (Homo sapiens)
Test: Cytochrome panel assay with activity outcomes
Settings: recombinant CYP, pro-luciferin dealkylation, luminescence, p450-cyp2c9; series mostly up to 57.1 µM
Protocol: The P450 gene superfamily is involved in the metabolism and clearance of xenobiotics. This assay used various human CYP P450 isozymes to measure the dealkylation of various pro-luciferin substrates to luciferin. The luciferin is then measured by luminescence after the addition of a luciferase detection reagent. […] Inhibitors and some substrates limit the production of luciferin, and decrease measured luminescence. […] 8, Detection, 1 sec, ViewLux luminescent read […]
In all, about 16,000 compounds went through this assay and about 4,000 (25%) were called active. About 26% were inconclusive and are not listed. Calls come from the whole dose curve; as a rule, active = well fitted curve in the direction sought with a large enough effect; inconclusive = small, poorly fitted or top-dose-only effect, or effect the other way; inactive = no such curve, though single readings can be large or run the other way. Not all results are given here.
Allowed answers: yes = active, no = inactive

Examples with answers:
compound=O=C(c1coc2ccccc2c1=O)N1CCN(c2cccc(C(F)(F)F)c2)CC1 label_class=yes
compound=Cc1cc(NS(=O)(=O)c2ccc(NC(=O)CN3C(=O)c4ccccc4C3=O)cc2)nc(C)n1 label_class=no
compound=CCNc1ncc2nc(-c3ccccc3)c(=O)n(C3CC3)c2n1 label_class=no

What is the recorded call for this compound in the test? COC(=O)[C@@]1(Cc2ccc(F)cc2)[C@H]2c3cc(C(=O)N4CCCC4)n(Cc4ccc(C)o4)c3C[C@H]2CN1C(=O)c1ccccc1
yes

What is the recorded call for this compound in the test? COc1ccc2c(c1)Cc1sc(NC(=O)c3ccco3)nc1-2
yes

What is the recorded call for this compound in the test? CCOc1c(OC(C)=O)ccc(/C=C2\N=C(SCC)SC2=O)c1[N+](=O)[O-]
yes

What is the recorded call for this compound in the test? O=C(NCCCn1ccnc1)Nc1ccc(Cl)cc1
yes

----------
biological target: Cytochrome P450 2C9 (Homo sapiens); test: Cytochrome panel assay with activity outcomes; conditions: recombinant CYP, pro-luciferin dealkylation, luminescence, p450-cyp2c9; series mostly up to 57.1 µM; for activity, negative = inhibition: % is set by controls: 0 for no effect and ±100 for the full control effect
In all, about 16,000 compounds went through this assay and about 4,000 (25%) were called active. Inconclusive results (about 26%) are left out. Only a sample is shown.
Quantity: activity, negative = inhibition

Give one value of activity, negative = inhibition per listed compound.
1. c1cncc(CNc2cc(-c3ccoc3)ncn2)c1
2. CO/N=C\[C@@H](OC)[C@H](C)/C=C\CC(=O)OC
3. CN1CCN(c2ccnc(-c3ccoc3)n2)CC1
4. Cc1cc2c(nc1C)CCCN2CC(O)CN1CCCc2nc(C)c(C)cc21

1. 2% [at 2.29 µM] (inactive)
2. -2.61% [at 11.4 µM] (inactive)
3. 4.59% [at 2.29 µM] (inactive)
4. -10.8% [at 11.4 µM] (inactive)

Give one value of activity, negative = inhibition per listed compound.
1. CN(C)C(=O)c1ccc(-c2nc(Nc3ccc(F)cc3)c3ccccc3n2)cc1
2. Cc1cccc(CNc2ccnc(-c3ccc(C(=O)N(C)C)cc3)n2)c1
3. CC(C)[C@H](NC(=O)OC(C)(C)C)[C@@H](O)CC(=O)C(C)(C)C
4. Cc1cc2c(nc1C)CCCN2C[C@@H](O)CN1CCN(C)CC1

-11.1% [at 2.29 µM] (inactive)
-11.3% [at 2.29 µM] (inactive)
9.81% [at 11.4 µM] (inactive)
29.4% [at 11.4 µM] (inactive)

----------
Target: Cytochrome P450 2C9 (Homo sapiens) (UniProt P11712)
Sequence (P11712 whole entry, looked up): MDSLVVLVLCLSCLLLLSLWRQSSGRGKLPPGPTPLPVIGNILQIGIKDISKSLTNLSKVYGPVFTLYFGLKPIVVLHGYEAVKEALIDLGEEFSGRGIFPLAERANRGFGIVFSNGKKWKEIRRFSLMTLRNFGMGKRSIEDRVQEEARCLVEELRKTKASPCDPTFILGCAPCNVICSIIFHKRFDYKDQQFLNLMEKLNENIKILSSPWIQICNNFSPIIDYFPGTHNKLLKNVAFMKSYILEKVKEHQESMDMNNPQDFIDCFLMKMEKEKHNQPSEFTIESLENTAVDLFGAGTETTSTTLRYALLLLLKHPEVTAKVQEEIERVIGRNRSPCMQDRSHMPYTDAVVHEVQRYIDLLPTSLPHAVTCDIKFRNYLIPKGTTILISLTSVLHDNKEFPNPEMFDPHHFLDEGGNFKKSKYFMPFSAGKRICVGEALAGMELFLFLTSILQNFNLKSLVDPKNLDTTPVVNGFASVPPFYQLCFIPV
Experiment: Cytochrome panel assay with activity outcomes
Settings: recombinant CYP, pro-luciferin dealkylation, luminescence, p450-cyp2c9; series mostly up to 57.1 µM
Protocol: The P450 gene superfamily is involved in the metabolism and clearance of xenobiotics. This assay used various human CYP P450 isozymes to measure the dealkylation of various pro-luciferin substrates to luciferin. The luciferin is then measured by luminescence after the addition of a luciferase detection reagent. […] Inhibitors and some substrates limit the production of luciferin, and decrease measured luminescence. […] 8, Detection, 1 sec, ViewLux luminescent read […]
Screen size: about 16,000 compounds; about 4,000 (25%) were called active. Inconclusive results (about 26%) are left out. Calls come from the whole dose curve; as a rule, active = well fitted curve in the direction sought with a large enough effect; inconclusive = small, poorly fitted or top-dose-only effect, or effect the other way; inactive = no such curve, though single readings can be large or run the other way. A selection follows.
Allowed answers: true (1) (active), false (0) (inactive)

Examples with answers:
compound=COc1cc(/C=C(\C#N)C(N)=O)cc(CSc2nc3ccccc3s2)c1O label_class="false (0)"
compound="Cc1cc([N+](=O)[O-])ccc1-c1ccc(C2Nc3ccccc3C(=O)N2O)o1 (stereo unspecified)" label_class="true (1)"
compound=COCC(=O)N1CCC2(CC1)CCN(C(=O)Nc1cccc(F)c1)CC2 label_class="false (0)"
compound=N#C/C(=C/c1cccc(C(F)(F)F)c1)c1nc(CCN2C(=O)c3ccccc3C2=O)cs1 label_class="true (1)"
compound=CCc1cc2cc(C)c(C)cc2nc1SCC(=O)NNC(=O)c1ccco1 label_class="false (0)"

What is the recorded call for this compound in the test? O=C(Nc1cccc(F)c1)N1CCC2(CCNCC2)CC1
false (0)

What is the recorded call for this compound in the test? COC(=O)c1ccccc1N/C=C1\CCc2c(c(C)nn2-c2ccccn2)C1=O
true (1)

What is the recorded call for this compound in the test? COC(=O)[C@@]1(Cc2ccccc2)[C@H]2c3cc(C(=O)N4CCCC4)n(Cc4cc(F)cc5c4OCOC5)c3C[C@H]2CN1C(=O)c1ccccc1
true (1)

What is the recorded call for this compound in the test? O=C(c1ccccc1)c1c[nH]c(C(=O)NCCCN2CCOCC2)c1
false (0)

What is the recorded call for this compound in the test? O=S1(=O)C=C(SCc2cccc(Cl)c2)Nc2ccccc21
true (1)

What is the recorded call for this compound in the test? CC(C)C[C@H](NC(=O)[C@@H](O)[C@@H](N)Cc1ccccc1)C(=O)O
false (0)

----------
target: Cytochrome P450 2C9 (Homo sapiens) (UniProt P11712); experiment: Cytochrome panel assay with activity outcomes; details: recombinant CYP, pro-luciferin dealkylation, luminescence, p450-cyp2c9; series mostly up to 57.1 µM
Screen size: about 16,000 compounds; about 4,000 (25%) were called active. About 26% were inconclusive and are not listed. A selection follows.
Quantity: AC50

Some compounds with recorded AC50:
compound=CCOC(=O)N1CCN(C(=O)c2cccn3c(=O)c4cc(Cl)ccc4nc23)CC1 quantity=AC50 result="8.91 µM (active)"
compound=CC[C@H](C)C(=O)O[C@H]1CCC=C2C=C[C@H](C)[C@H](CC[C@@H]3C[C@H](O)CC(=O)O3)[C@H]21 quantity=AC50 result=inactive
compound=C[C@@H](C(=O)NCc1ccccn1)[C@H]1C[C@]1(C)[C@H](NC(=O)OCc1ccccc1)c1ccccc1 quantity=AC50 result="10 µM (active)"
compound=Cn1c[n+](C)cc1/C=N/O quantity=AC50 result=inactive
compound="CC(C)C(NC(=O)C1CCCCC1)C(=O)NCc1ccccn1 (stereo unspecified)" quantity=AC50 result=inactive

Kindly review the next compound as well.
Cytochrome P450 2C9 (Homo sapiens) (UniProt P11712) AC50 of CN1CCN(C2CC(=O)N(Cc3ccc(N4CCCC4=O)cc3)C2=O)CC1 (stereo unspecified) is inactive

----------
target: Cytochrome P450 2C9 (Homo sapiens) (UniProt P11712); experiment: Cytochrome panel assay with activity outcomes; settings: recombinant CYP, pro-luciferin dealkylation, luminescence, p450-cyp2c9; series mostly up to 57.1 µM
Screen size: about 16,000 compounds; about 4,000 (25%) were called active. About 26% were inconclusive and are not listed. Calls follow the shape of the dose curve; as a rule, active = well fitted curve in the direction sought with a large enough effect; inconclusive = small, poorly fitted or top-dose-only effect, or effect the other way; inactive = no such curve, though single readings can be large or run the other way. Not all results are given here.
Allowed answers: active, inactive

Examples with answers:
molecule=COc1ccc(-c2nc3cnc(Nc4cccc(OC)c4)nc3n(CCC#N)c2=O)cc1 label_class=inactive
molecule=Cc1cccc(NC(=S)NC(=O)CCc2ccccc2)c1 label_class=active
molecule=O=C(CN1CCN(C2CCCCC2)CC1)NCCC1=CCCCC1 label_class=inactive

What is the recorded call for this molecule in the test? Cc1nc2cnc(N(C)C)nc2n(CCc2ccccc2)c1=O
active

What is the recorded call for this molecule in the test? CN(C)c1ncc2nc(-c3ccccc3)c(=O)n(CCC#N)c2n1
inactive

What is the recorded call for this molecule in the test? CCCCCc1nc2c(C#N)c(-c3ccc(Cl)cc3)ccn2n1
active

What is the recorded call for this molecule in the test? CCCN(C(=S)Nc1ccccc1)C1CCS(=O)(=O)C1 (stereo not drawn)
inactive

What is the recorded call for this molecule in the test? CN(C)c1ncc2nc(-c3cccs3)c(=O)n(Cc3cccs3)c2n1
inactive

What is the recorded call for this molecule in the test? Cc1nn(-c2ccccc2)c(C)c1/C=N/NC(=O)c1cc(-c2ccc(Cl)s2)[nH]n1
active

What is the recorded call for this molecule in the test? Oc1cccc(-c2nc3c4c(ncn3n2)-c2ccccc2CC42CCCC2)c1
active

What is the recorded call for this molecule in the test? O=C1CSc2ccc(C(=O)NCCC3=CCCCC3)cc2N1
inactive

What is the recorded call for this molecule in the test? COc1ccc2c(c1)CCCC21NC(=O)N(CC(N)=O)C1=O (stereo not drawn)
inactive

What is the recorded call for this molecule in the test? CC1(c2ccccc2)NC(=O)N(CC(=O)NCCC2=CCCCC2)C1=O (stereo not drawn)
active

What is the recorded call for this molecule in the test? CCOC(=O)c1ccc(NC(=O)COc2ccccc2OC)cc1
active

What is the recorded call for this molecule in the test? CN(C)[C@@H]1C(=O)C(C(N)=O)=C(O)[C@]2(O)C(=O)C3=C(O)c4c(O)ccc(Cl)c4[C@H](O)[C@H]3C[C@@H]12
inactive

What is the recorded call for this molecule in the test? CCCCNC(=O)[C@@H]1Cc2ccccc2N1C(=O)[C@H](N)CC
inactive

What is the recorded call for this molecule in the test? C/C(=N\NC(=O)CC1N=C(Cc2ccccc2)NNC1=O)c1ccc(Cl)cc1Cl (stereo not drawn)
inactive

What is the recorded call for this molecule in the test? CN(C)c1ncc2nc(CCc3ccccc3)c(=O)n(Cc3cccs3)c2n1
active

What is the recorded call for this molecule in the test? Cc1cc(C)c[n+](CC(=O)c2cc3ccccc3oc2=O)c1
inactive

What is the recorded call for this molecule in the test? CN(C)c1ncc2nc(CCc3ccccc3)c(=O)n(CCC#N)c2n1
active

What is the recorded call for this molecule in the test? CCCCNC(=O)CN1C(=O)NC2(CCCc3ccccc32)C1=O (stereo not drawn)
active

What is the recorded call for this molecule in the test? COc1ccc(OC)c(C2CC(=O)C3=C(C2)NC(=O)CC3c2ccc(O)c(OC)c2)c1 (stereo not drawn)
active

What is the recorded call for this molecule in the test? CN[C@H]1[C@@H](O[C@@H]2[C@H](O[C@@H]3[C@@H](O)[C@@H](O)[C@@H](N=C(N)N)[C@@H](O)[C@@H]3N=C(N)N)O[C@H](C)[C@@]2(O)C=O)O[C@@H](CO)[C@@H](O)[C@H]1O
inactive

What is the recorded call for this molecule in the test? O=C(Oc1ccccc1)N1CCC2(CC1)CCN(c1cccc(-c3ccccc3)c1)CC2
inactive

Values from PubChem BioAssay AID1851
